Biological target: HLA-A*01:01 (Homo sapiens, UniProt P04439, A114D/A174V/A182V/D101N/D185E/E176A/E190D/L180R/Q94H/R68K/S129P/T187R/V100A/V91M/W191G)
Assay: In vitro binding of neoantigens to class I MHC (UV peptide exchange, HLA class I ELISA)
Settings: 100% = same binding affinity as positive control peptide
Answer each item with its documented Exchange rate with Pos peptide, HLA-A*01:01.
Numeric only. Scale: %

Ask | What value of measured Exchange rate with Pos peptide, HLA-A*01:01 is listed for PKSEVRAKCKFSILNAK (listed as Homo sapiens) [Neoantigen P56, SPOP (F102C)] ?
Reply | 2.6

Ask | And SLYHREKQLIAMDSAI (listed as Homo sapiens) [Neoantigen P22, 5LC45A3-ELK4] ?
Reply | 4.4

Ask | What would you report for VQPIARELYQFTFDLLI (listed as Homo sapiens) [Neoantigen P48, AR.p.H875Y] ?
Reply | 4.3

Ask | Cool, now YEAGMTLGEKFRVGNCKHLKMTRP (listed as Homo sapiens) [Neoantigen P82, AR-V7]
Reply | 1.5

Ask | Now this one: MMAEHSVHVPKILSGK (MMAEIISVHVPKILSGK; listed as Homo sapiens) [Neoantigen P58, AR (Q903H)]
Reply | 2.5

Ask | And for GYLRMQGLMAQRLLLR (listed as Homo sapiens) [Neoantigen P97, FOXRED2-TXN2] ?
Reply | 2.5

Ask | Moving on to DSSGNLLERNSFEVRV (listed as Homo sapiens) [Neoantigen P73, TP53 (G266E)]
Reply | 2.1

----------
Target: HLA-B*07:02 (Homo sapiens, UniProt P01889)
Assay: In vitro binding of neoantigens to class I MHC (UV peptide exchange, HLA class I ELISA)
Details: 100% = same binding affinity as positive control peptide
PARAMETER: Exchange rate with Pos peptide, HLA-B*07:02

Ask | Return reported Exchange rate with Pos peptide, HLA-B*07:02; argument: DSSGNLLERNSFEVRV (listed as Homo sapiens) [Neoantigen P73, TP53 (G266E)]
Reply | 8.7%

Ask | Now the sequence SLYHREKQLIAMDSAI (listed as Homo sapiens) [Neoantigen P22, 5LC45A3-ELK4]
Reply | 8.3%

Ask | Input DDRNTFDIVWWCPMSRLRLALTVPPSTTTTCVTVPAWAA [P46] (listed as Homo sapiens) [Neoantigen P46, TP53 (R213D)]
Reply | 64.8%

Ask | Now give it for CYLRRQKRLKCEKQPGA (listed as Homo sapiens) [Neoantigen P60, FOXA1.p.F266L] too.
Reply | 6.1%

----------
Biological target: HLA-A*02:01 (Homo sapiens, UniProt P04439, D140Y/D185E/D98H/E176V/E277Q/G131W/G231S/I119V/I121R/I166T/I218V/L300P/L318F/N151K/N90K/P208A/P217A/Q86G/Q94H/R138H/R169H/T345S)
Test: In vitro binding of neoantigens to class I MHC (UV peptide exchange, HLA class I ELISA)
Details: 100% = same binding affinity as positive control peptide
PARAMETER: Exchange rate with Pos peptide, HLA-A*02:01
Output should be the measured figure followed by the unit it is expressed in.

Ask | Reported Exchange rate with Pos peptide, HLA-A*02:01 for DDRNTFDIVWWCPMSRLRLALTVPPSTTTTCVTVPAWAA [P46] (listed as Homo sapiens) [Neoantigen P46, TP53 (R213D)] : what is it?
Reply | 14.4%

Ask | Entry GYLRMQGLMAQRLLLR (listed as Homo sapiens) [Neoantigen P97, FOXRED2-TXN2] please
Reply | 4.6%

Ask | Next sequence up: VQPIARELYQFTFDLLI (listed as Homo sapiens) [Neoantigen P48, AR.p.H875Y]
Reply | 99.3%

Ask | Likewise for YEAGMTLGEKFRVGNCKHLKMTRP (listed as Homo sapiens) [Neoantigen P82, AR-V7] ?
Reply | 6.3%

Data provenance is patent US12582683B2.
